# targetOrTestSystem: UniProtKB P0A0K8
# experimentDescription: S. aureus GyrB ATPase inhibition (ammonium molybdate/malachite green phosphate detection)
# Format: biochemical
# protocolConditions: compound concentration of 1 μM
# Excerpt: S. aureus GyrB ATPase Inhibition Activity: Compounds may be tested for inhibition of S. aureus GyrB ATPase activity using an ammonium molybdate/malachite green-based phosphate detection assay (Lanzetta, P. A., L. J. Alvarez, P. S. Reinach, and O. A. Candia, 1979, 100: 95-97). […] An IC50 measurement of compound potency for each compound can be determined from reactions performed in the presence of 10 different compound concentrations. […]
measuredAttribute: inhibition at 1 µM
Please state the value followed by its unit.

>  <compound>
Cc1[nH]c(C(=O)N[C@@H]2CCN(c3nc(-c4csc(N)n4)c(C(=O)O)s3)C[C@@H]2F)c(Cl)c1Cl [Example 36]

>  <inhibition at 1 µM>
99.6%

$$$$
>  <compound>
COc1cccc(-c2nc(N3CC[C@@H](NC(=O)c4[nH]c(C)c(Cl)c4Cl)[C@@H](OC)C3)sc2C(=O)O)n1 [Example 111]

>  <inhibition at 1 µM>
105%

$$$$
>  <compound>
CCOC(=O)c1sc(N2CC[C@@H](NC(=O)c3[nH]c(C)c(Cl)c3Cl)[C@@H](OC)C2)nc1-c1ncccc1F [Example 97]

>  <inhibition at 1 µM>
91.5%

$$$$
>  <compound>
COC(=O)c1sc(N2CC[C@@H](NC(=O)c3[nH]c(C)c(Cl)c3C#N)[C@@H](OC)C2)nc1-c1ncnn1C [Example 104]

>  <inhibition at 1 µM>
86.4%

$$$$
>  <compound>
COC(=O)c1sc(N2CC[C@@H](NC(=O)c3[nH]c(C)c(Cl)c3Cl)[C@@H](OC)C2)nc1-c1ncc[nH]1 [Example 86]

>  <inhibition at 1 µM>
99.9%

$$$$

### Prompt What value of inhibition at 1 µM has been recorded for this entry: Cc1[nH]c(C(=O)N[C@@H]2CCN(c3nc(-c4ncc[nH]4)c(C(=O)O)s3)C[C@@H]2F)c(Cl)c1Cl [Example 20]
### Response 98.6%

### Prompt What value of inhibition at 1 µM has been recorded for this entry: CCCO[C@H]1CN(c2nc(-c3ncnn3C)c(C(=O)O)s2)CC[C@H]1NC(=O)c1[nH]c(C)c(Cl)c1Cl [Example 159]
### Response 31%
